The compounds below each have a reported IC50 tested on Cytochrome P450 2C9 (Homo sapiens, UniProt P11712); the values come from various publications.

// below: answered compounds
# compound, result
rows = [
    ("O=C(c1cc(Cl)c(O)c(Cl)c1)N1CCOc2ccc(Cl)cc21", "16 µM"),
    ("O=C(c1ccc([N+](=O)[O-])cc1)N1CCOc2ccccc21", "> 50 µM"),
    ("CS(=O)(=O)Nc1c(Cl)cc(C(=O)N2CCOc3ccccc32)cc1Cl", "6 µM"),
    ("COc1ccc2c(c1)OCCN2C(=O)c1cc(Cl)c(O)c(Cl)c1", "9 µM"),
    ("C[C@]1(c2nc(NC(=O)c3cnc(OCF)cn3)ccc2F)N=C(N)S[C@H](CF)[C@@H]1F", "≥ 10 µM"),
    ("Cc1cnc(Nc2cnn(C3CCN(C(=O)CO)CC3)c2)nc1-c1ccc(C(=O)N[C@@H](C)C#N)cc1", "> 50 µM"),
    ("COC(=O)c1ccc(C(=O)N2CCOc3ccccc32)cc1", "> 50 µM"),
    ("COc1ccc(Nc2ccc(C(=O)c3c[nH]c4ncnc(NCC(F)(F)F)c34)c(F)n2)cn1", "> 10 µM"),
]

Consider the compound shown here: "C[C@](N)(c1ccc(F)cc1)c1cnc(N2CCN(c3ncnn4cc(-c5cnn(CCO)c5)cc34)CC2)nc1" What is its recorded IC50? 7.13 µM

Try this compound next: "COc1cc2c(NCC3CCN(C)CC3)nc(N3CCC(F)(F)CC3)nc2cc1OCCCN1CCCC1" > 100 µM

Next: "CC(C)=CNc1ncnc2[nH]cc(C(=O)c3ccc(NC4CCC(F)(F)CC4)nc3Cl)c12" > 10 µM

Moving on to "C[C@H](F)[C@H]1OC(N)=N[C@](C)(c2cc(NC(=O)c3ccc(C#N)cn3)ccc2F)[C@H]1F" ≥ 20 µM

Now consider O=C(c1cc(Cl)c(O)c(Cl)c1)N1CC[S+]([O-])c2ccccc21 (centres unmarked) and answer again. 39 µM

Then what about the compound "CO[C@@H]1CN(C2CCN(C(=O)c3cncn3[C@@H](C)c3ccccc3-c3ccc(F)cc3)CC2)CC[C@@H]1O" ? > 10 µM

Another compound to check: "CO[C@H]1[C@@H](C)SC(N)=N[C@]1(C)c1cc(NC(=O)c2ccc(C#N)cn2)ccc1F" ≥ 20 µM

###

Record set: pIC50 | Cytochrome P450 2C9 (Homo sapiens, UniProt P11712) | literature, multiple sources.
pIC50: −log10 of the molar value.

Illustrative cases are given below, each with its answer.
# compound, pIC50
rows = [
    ("Cc1cnc(Nc2cnn(C3CCC(O)CC3)c2)nc1-c1ccc(C(=O)NCC#N)cc1 (stereo not drawn)", 5.23),
    ("COC(=O)c1cccc2c1N(C(=O)c1cc(Cl)c(O)c(Cl)c1)CCO2", 4.68),
    ("COc1nc(C)cnc1NS(=O)(=O)c1cccnc1C#Cc1cc2c(cc1C)COC2(C)C", "< 5.00"),
    ("CC(C)Nc1ncnc2[nH]cc(C(=O)c3ccc(NC4CCCCC4)nc3F)c12", "5.00 to 5.30"),
    ("Cc1cnc(Nc2cnn(C3CCN(CC(F)F)CC3)c2)nc1-c1ccc(C(=O)NCC#N)cc1", "< 4.30"),
]

Report pIC50 for "O=C(O)[C@H]1CCCN(S(=O)(=O)c2ccccc2C(F)(F)F)C1" please. < 4.30
